# maps each entry to its Activity
Target: GABA-A receptor; alpha-1/beta-2/gamma-2 (Rattus norvegicus) (UniProt P18508+P62813+P63138)
Experiment: Agonist activity at rat GABAA alpha1beta3gamma2 receptor expressed in Xenopus oocytes assessed as stimulation of GABA-induced chloride current at 1 uM incubated 30 secs prior to GABA induction measured after 15 mins by two-electrode voltage clamp assay relative to control
Assay type: cell-based
Settings: Oocyte
Field format: number, assumed %, no unit text.

Some solved entries appear below for comparison.
CPD SMILES | ASSAY METRIC | DATA VALUE
C#Cc1ccc2c(c1)C(c1ccccc1)=NCc1c(C(=O)NC)ncn1-2 | Activity | 192
C#Cc1ccc2c(c1)C(c1ccccc1)=NCc1c(-c3nc(C(C)C)no3)ncn1-2 | Activity | 150
C#Cc1ccc2c(c1)C(c1ccccc1F)=NCc1c(-c3nc(C(C)C)no3)ncn1-2 | Activity | 234
C#Cc1ccc2c(c1)C(c1ccccn1)=NCc1c(C(=O)NC)ncn1-2 | Activity | 171
C#Cc1ccc2c(c1)C(c1ccccn1)=NCc1c(-c3nc(C(C)C)no3)ncn1-2 | Activity | 178

**Q:** Endpoint output: Activity of C#Cc1ccc2c(c1)C(c1ccccc1F)=NCc1c(C(=O)NC)ncn1-2 . Value?
**A:** 201

###

Test: Metabolic stability in human liver microsomes assessed as compound remaining at 1 uM measured at 60 mins by LC-MS/MS analysis relative to control
Type: ADME, Microsome
Settings: liver microsomes, read-out: Stability
ASSAY METRIC: remaining at 1 h, 1 µM (%)
Give just the numeric value; % need not be written.

// known answers, use as guide
CPD SMILES | UNIT ANNOTATION | remaining at 1 h, 1 µM
C#Cc1ccc2c(c1)C(c1ccccc1)=NCc1c(-c3nc(C(C)C)no3)ncn1-2 | % | 90.8
C#Cc1ccc2c(c1)C(c1ccccc1F)=NCc1c(C(=O)NC)ncn1-2 | % | 92.3

# evaluate next
**Q:** Reported remaining at 1 h, 1 µM for C#Cc1ccc2c(c1)C(c1ccccn1)=NCc1c(-c3nc(C(C)C)no3)ncn1-2 : what is it?
**A:** 89.5
